# OD450 nm values compiled below
Target: T1, human APRIL protein (human, UniProt O75888 105-250, limits assumed)
T1 construct: Bought protein; also called recombinant APRIL protein
T1 sequence (looked up): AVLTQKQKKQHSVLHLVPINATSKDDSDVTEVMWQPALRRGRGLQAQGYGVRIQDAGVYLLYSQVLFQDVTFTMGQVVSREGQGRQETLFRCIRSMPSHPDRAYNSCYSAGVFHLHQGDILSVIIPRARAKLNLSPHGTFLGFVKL
Experiment: ELISA, coated APRIL; antibody 66.7 nM
// no unit string in output, number only

Solved entries:
Request: Check the records and state OD450 nm for 89A2G5E7 (antibody, V domains shown, Mouse hybridoma antibody purified on Protein G) VH: QVQLKESGPGLVAPSQSLSITCTVSGLSLNSHDISWIRQPPGKGLEWLGVIWSGGGTKYNSAFMSRLSISKDNSKSQVFLKMNSLHTDDTAIYYCVRTPSMITYSAMDYWGQGTSVTVSS VL: EIVLTQSPALMAASPGEKVTITCSVSSSISSRNLHWYQQKSQTSPKAWIHATSNLASGVPVRFSGSGSGTSYSLTISSMEAEDAATYYCQQWSSYPLTFGSGTKLEIK
Result: 0.196

Request: State its OD450 nm: 2-1G11 (antibody, human IgG1, V domains shown) VH: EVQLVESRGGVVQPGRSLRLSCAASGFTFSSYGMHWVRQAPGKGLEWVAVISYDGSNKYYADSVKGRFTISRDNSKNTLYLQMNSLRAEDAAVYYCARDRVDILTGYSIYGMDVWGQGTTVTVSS VL: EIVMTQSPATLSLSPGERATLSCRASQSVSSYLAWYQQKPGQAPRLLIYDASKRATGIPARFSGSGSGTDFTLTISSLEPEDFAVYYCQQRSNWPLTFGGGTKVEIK
Result: 0.296

Kindly review the next binder as well.
Request: Report OD450 nm for 35E6F7C3 (antibody, V domains shown, Mouse hybridoma antibody purified on Protein G) VH: EVQLQQSGAELVKPGASVKLSCTAAGFNIQDTYIHWVKQRPEQGLEWIGRIDPANANTVYDPKFQGKATITADTSSNTAYLQVSSLTSEDTAVYYCASPVITAGFAYWGQGTLVTVSA VL: QIVLTQSPAIMSASPGEKVTMTCGASSSVNYVHWYQQKSGTSPKRWIYDTSKLASGVPARFSGSGSGTSYSLTISSMEAEDAATYYCQQWTRSPLTFGAGTKVELK
Result: 0.0703
